The reported measurements were obtained from patent US8569344B2.

Provide the recorded IC50 for the entries that follow.
- study system: human α1G T-type channels (Homo sapiens, UniProt O43497)
- Construct: expressed in transfected cells; host or cells: HEK 293
- Sequence (O43497 whole entry): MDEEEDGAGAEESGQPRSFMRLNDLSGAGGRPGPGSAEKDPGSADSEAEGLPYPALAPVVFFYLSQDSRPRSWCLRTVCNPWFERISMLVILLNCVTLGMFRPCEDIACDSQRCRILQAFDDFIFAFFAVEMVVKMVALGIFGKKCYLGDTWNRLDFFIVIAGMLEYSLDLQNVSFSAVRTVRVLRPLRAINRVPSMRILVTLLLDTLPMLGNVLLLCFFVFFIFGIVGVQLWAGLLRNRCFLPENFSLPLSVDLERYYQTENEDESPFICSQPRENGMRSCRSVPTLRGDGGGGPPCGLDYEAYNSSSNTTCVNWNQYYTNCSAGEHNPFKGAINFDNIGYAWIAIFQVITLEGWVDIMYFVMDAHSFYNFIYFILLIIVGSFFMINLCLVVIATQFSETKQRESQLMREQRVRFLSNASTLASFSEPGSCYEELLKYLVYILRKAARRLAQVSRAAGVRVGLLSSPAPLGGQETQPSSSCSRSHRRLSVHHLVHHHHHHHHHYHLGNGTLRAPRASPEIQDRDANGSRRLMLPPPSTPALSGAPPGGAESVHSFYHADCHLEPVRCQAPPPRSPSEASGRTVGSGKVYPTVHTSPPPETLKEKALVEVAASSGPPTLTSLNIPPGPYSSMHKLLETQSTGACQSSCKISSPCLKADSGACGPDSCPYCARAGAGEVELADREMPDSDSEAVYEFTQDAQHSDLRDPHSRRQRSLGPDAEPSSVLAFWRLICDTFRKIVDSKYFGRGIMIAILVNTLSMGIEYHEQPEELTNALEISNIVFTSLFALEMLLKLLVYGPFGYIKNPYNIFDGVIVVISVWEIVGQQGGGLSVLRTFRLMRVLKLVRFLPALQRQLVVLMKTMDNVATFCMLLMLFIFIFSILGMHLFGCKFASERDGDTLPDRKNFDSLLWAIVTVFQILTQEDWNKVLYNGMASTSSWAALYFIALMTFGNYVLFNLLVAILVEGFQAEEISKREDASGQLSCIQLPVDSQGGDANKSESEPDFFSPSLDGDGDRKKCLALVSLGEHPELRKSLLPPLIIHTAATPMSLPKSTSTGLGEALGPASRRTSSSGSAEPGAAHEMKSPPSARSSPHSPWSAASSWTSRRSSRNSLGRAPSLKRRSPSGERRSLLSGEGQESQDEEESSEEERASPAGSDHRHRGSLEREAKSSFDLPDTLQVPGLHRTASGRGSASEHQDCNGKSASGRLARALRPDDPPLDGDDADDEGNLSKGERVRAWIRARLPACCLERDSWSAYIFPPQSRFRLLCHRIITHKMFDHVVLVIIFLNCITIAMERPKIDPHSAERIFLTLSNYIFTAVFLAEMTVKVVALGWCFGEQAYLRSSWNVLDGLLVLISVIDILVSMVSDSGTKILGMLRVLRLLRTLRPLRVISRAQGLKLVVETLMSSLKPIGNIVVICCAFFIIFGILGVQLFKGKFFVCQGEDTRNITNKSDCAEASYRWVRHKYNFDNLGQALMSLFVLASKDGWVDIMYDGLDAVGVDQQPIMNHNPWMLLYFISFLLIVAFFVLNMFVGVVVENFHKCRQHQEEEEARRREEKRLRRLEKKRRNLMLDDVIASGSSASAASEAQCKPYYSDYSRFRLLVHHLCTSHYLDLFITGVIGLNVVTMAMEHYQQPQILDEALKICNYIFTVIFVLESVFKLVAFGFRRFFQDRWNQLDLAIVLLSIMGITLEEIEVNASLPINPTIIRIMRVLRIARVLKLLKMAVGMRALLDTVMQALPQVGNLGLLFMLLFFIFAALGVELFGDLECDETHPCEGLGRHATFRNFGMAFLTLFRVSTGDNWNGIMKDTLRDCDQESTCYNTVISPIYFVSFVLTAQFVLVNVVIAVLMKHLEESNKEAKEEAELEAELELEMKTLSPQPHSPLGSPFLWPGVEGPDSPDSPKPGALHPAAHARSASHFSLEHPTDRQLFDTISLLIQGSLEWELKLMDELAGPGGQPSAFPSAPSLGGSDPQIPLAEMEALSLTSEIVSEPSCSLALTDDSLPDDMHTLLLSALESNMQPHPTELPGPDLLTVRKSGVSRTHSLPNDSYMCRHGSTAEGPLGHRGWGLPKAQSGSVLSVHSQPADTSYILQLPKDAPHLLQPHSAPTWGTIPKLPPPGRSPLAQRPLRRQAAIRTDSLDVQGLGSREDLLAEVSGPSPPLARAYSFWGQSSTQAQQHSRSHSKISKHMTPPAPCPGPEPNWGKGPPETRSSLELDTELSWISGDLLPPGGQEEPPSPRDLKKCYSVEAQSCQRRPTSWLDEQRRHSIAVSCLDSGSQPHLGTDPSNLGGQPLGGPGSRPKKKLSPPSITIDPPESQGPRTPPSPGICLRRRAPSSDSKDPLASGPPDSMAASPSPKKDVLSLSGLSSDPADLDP
- method notes: T-type calcium channel block, whole cell patch clamp in HEK cells (α1G)
- Assay type: cell-based
- run parameters: HEK cells, patch clamp, mainly non-inactivated protocol; values above 10 μM shown as 10 μM, below 0.30 μM shown as 0.30 μM; read-out: T-type Calcium Channel Block α1G IC50
# value in nM; strip the unit string

Assay human α1G T-type channels (Homo sapiens, UniProt O43497), sample CN(CCN1CCC(CNC(=O)c2cc(F)cc(C(F)(F)F)c2)CC1)C(=O)C1(C)CC1 [Compound 518] , IC50 read: 1310

For the molecule CN(C(=O)CN1CCC(CNC(=O)c2cccc(Cl)c2)CC1)C(C)(C)C [Compound 543] , the measured IC50 on human α1G T-type channels (Homo sapiens, UniProt O43497) was 580

Observed IC50 on human α1G T-type channels (Homo sapiens, UniProt O43497), entry CC(C)(C)C1CCN(CC(=O)N2CCC(CNC(=O)c3cc(F)cc(C(F)(F)F)c3)CC2)CC1 [Compound 285] , equals 4940

I looked up CCOc1cc(OCC)cc(C(=O)NCC2CCN(CCNC(=O)C3CCCC3)CC2)c1 [Compound 403] and its IC50 for human α1G T-type channels (Homo sapiens, UniProt O43497) was 1110

----------
- study system: human α1G T-type channels (Homo sapiens, UniProt O43497)
- Construct: expressed in transfected cells; host or cells: HEK 293
- method notes: T-type calcium channel block, whole cell patch clamp in HEK cells (α1G)
- Type: cell-based
- run parameters: HEK cells, patch clamp, mainly non-inactivated protocol; values above 10 μM shown as 10 μM, below 0.30 μM shown as 0.30 μM; read-out: T-type Calcium Channel Block α1G IC50
- Method: T-type calcium channel blocking activity was assayed in human embryonic kidney cells, HEK 293, stably transfected with the T-type calcium channel subunits. […] Standard patch-clamp techniques were employed to identify blockers of T-type currents. […] Data were analyzed using Clampfit (Axon Instruments) and SigmaPlot 4.0 (Jandel Scientific). […]
Give pIC50 for every item shown.
By convention, pIC50 is the negative base-10 log of a molar concentration.

Data point: "Cc1cc(C)cc(C(=O)NCC2CCN(CCNC(=O)C3(C(F)(F)F)CC3)CC2)c1" ; pIC50 = 6.11

pIC50 reading for CC(C(=O)N1CCSC1)N1CCC(CNC(=O)c2cc(F)cc(Cl)c2)CC1 (centres unmarked) : 5.04

pIC50 measured on "CC(C)(C)OC(=O)NCCN1CCC(CNC(=O)c2cc(C(C)(C)C)cc(C(C)(C)C)c2)CC1" = 6.47

The recorded pIC50 for entry "COc1cc(C(=O)NCC2CCN(CCNC(=O)CCC(F)(F)F)CC2)cc(C(F)(F)F)c1" equals 6.18

----------
- study system: human α1G T-type channels (Homo sapiens, UniProt O43497)
- Construct: expressed in transfected cells; host or cells: HEK 293
- method notes: T-type calcium channel block, whole cell patch clamp in HEK cells (α1G)
- Type: cell-based
- run parameters: HEK cells, patch clamp, mainly non-inactivated protocol; values above 10 μM shown as 10 μM, below 0.30 μM shown as 0.30 μM; read-out: T-type Calcium Channel Block α1G IC50
- Experimental: T-type calcium channel blocking activity was assayed in human embryonic kidney cells, HEK 293, stably transfected with the T-type calcium channel subunits. […] Standard patch-clamp techniques were employed to identify blockers of T-type currents. […] Data were analyzed using Clampfit (Axon Instruments) and SigmaPlot 4.0 (Jandel Scientific). […]
Rule for this label: True means IC50 is less than 2000 nM; False means IC50 is at least 2000 nM.

input: Please let me know if "CC(C)(C)N/C(CN1CCC(CNC(=O)c2cc(F)cc(C(F)(F)F)c2)CC1)=N\C#N" shows IC50 below 2000 nM.
output: False

input: Hi there! Is IC50 for "CC(C)(C)C(=O)NCCN1CCC(CC(=O)Nc2cc(C(F)(F)F)cc(C(F)(F)F)c2)CC1" below 2000 nM, do you know?
output: True

input: Report whether reported IC50 is lower than 2000 nM (strictly) for "Cc1cc(C)cc(C(=O)NCC2CCN(CCNC(=O)CCC(F)(F)F)CC2)c1"
output: False

input: Please indicate whether the reported IC50 of "O=C(NCC1CCN(CCNS(=O)(=O)C2CC2)CC1)c1cc(Cl)sc1Cl" is strictly below 2000 nM.
output: True

input: Consider the compound "CS(=O)(=O)NC1(CN2CCC(CNC(=O)c3cc(C(F)(F)F)cc(C(F)(F)F)c3)CC2)CC1" . Is its IC50 strictly less than 2000 nM?
output: False

input: Please let me know if "O=C(NCC1CCN(CCNC(=O)C2(C(F)(F)F)CC2)CC1)c1cccc(OC(F)(F)F)c1" shows IC50 below 2000 nM.
output: True

input: I wonder whether "COC(=O)NC1(CN2CCC(CNC(=O)c3cc(C(F)(F)F)cc(C(F)(F)F)c3)CC2)CCCC1" has IC50 below 2000 nM. Can you tell?
output: True

input: Lab note: IC50 threshold 2000 nM. Does this compound come in strictly under it? "O=C(NCC1CCN(CCNC(=O)C2(C(F)(F)F)CC2)CC1)c1cc(F)cc(C(F)(F)F)c1"
output: True

input: # strict comparison: is reported IC50 < 2000 nM? input = "CCS(=O)(=O)NC1(CN2CCC(CNC(=O)c3cc(C(F)(F)F)cc(C(F)(F)F)c3)CC2)CC1"
output: True

input: Quick check: IC50 of "CC1(NC(=O)CN2CCC(CNC(=O)c3cccc(Cl)c3)CC2)CCC1" under 2000 nM?
output: True

input: Hello, is IC50 of the following compound strictly smaller than 2000 nM? "CC(C)(C)OC(=O)NCCN1CCC(CNC(=O)c2cccc(OC(C)(C)C)c2)CC1"
output: False

input: Decide: IC50 of "CC(C)(C)[C@H](O)C(=O)N1CCC(CNC(=O)c2cc(C(F)(F)F)cc(C(F)(F)F)c2)CC1" strictly below 2000 nM?
output: False

input: I wonder whether "CC(C)NC(=O)CN1CCC(CNC(=O)c2cccc(Br)c2)CC1" has IC50 below 2000 nM. Can you tell?
output: False

input: is_below(IC50, 2000 nM) for "O=C(NCC1CCN(CCNC(=O)C2CCCC2)CC1)c1cccc(Cl)c1" ?
output: False

input: For "O=C(NCC1CCN(CC(=O)N2CCC[C@@H]2C(F)(F)F)CC1)c1cc(F)cc(Cl)c1" , is the recorded IC50 below the cut-off of 2000 nM?
output: True

input: Would you kindly verify if IC50 of "O=C(NCC1CCN(C(=O)[C@@H]2CCCCN2)CC1)c1cc(C(F)(F)F)cc(C(F)(F)F)c1" is strictly less than 2000 nM?
output: False

input: State whether 2000 nM exceeds IC50 recorded for "O=C(CC1CCN(CC2(NS(=O)(=O)C3CC3)CCCC2)CC1)Nc1cc(C(F)(F)F)cc(C(F)(F)F)c1" .
output: True

input: Given "COc1cc(F)cc(C(=O)NCC2CCN(CCNC(=O)C(C)(C)C(F)(F)F)CC2)c1" , is recorded IC50 strictly lower than 2000 nM?
output: True

input: # strict comparison: is reported IC50 < 2000 nM? input = "CC(C)CS(=O)(=O)NCCN1CCC(CC(=O)Nc2cc(F)cc(C(F)(F)F)c2)CC1"
output: True

input: Item CC(C(=O)NC(C)(C)C)N1CCC(CNC(=O)c2cc(F)cc(Cl)c2)CC1 (centres unmarked) : IC50 beneath 2000 nM, strictly?
output: True

input: Below 2000 nM on IC50? Entry "CC(C)(C)S(=O)(=O)NCCN1CCC(CNC(=O)c2cccc(Cl)c2)CC1"
output: True

input: Does the reported IC50 of the following compound sit strictly below 2000 nM? "CC(C)(C)OC(=O)NCCN1CCC(CNC(=O)c2cccc(Cl)c2)CC1"
output: True

input: Criterion: IC50 strictly below 2000 nM. Is it met by CC(C)(C)C(CN1CCC(CC(=O)NCc2cc(Cl)cc(Cl)c2)CC1)NS(C)(=O)=O (centres unmarked) ?
output: False

input: # strict comparison: is reported IC50 < 2000 nM? input = "CC(C)(C)OC(=O)NCCN1CCC(CNC(=O)c2cccc(C(F)(F)F)c2)CC1"
output: True

input: Would you kindly verify if IC50 of "O=C(NCC1CCN(CC(=O)N2CCC[C@H]2C(F)(F)F)CC1)c1cccc(C(F)(F)F)c1" is strictly less than 2000 nM?
output: True

input: Does the reported IC50 of "CC(C)(C)C(=O)NCCN1CCC(CNC(=O)c2cc(F)cc(C(F)(F)F)c2)CC1" stay below 2000 nM?
output: True

input: Check if IC50 falls below 2000 nM for "CC1(C)COCCN1C(=O)CN1CCC(CNC(=O)c2cc(C(F)(F)F)cc(C(F)(F)F)c2)CC1" .
output: True

input: IC50 under 2000 nM? Item: CCS(=O)(=O)NC(CN1CCC(CC(=O)NCc2cc(Cl)cc(Cl)c2)CC1)C(C)(C)C (centres unmarked)
output: False

input: Lab note: confirm whether the reported IC50 for this compound is below 2000 nM, equality not counting. compound: "CC(C)NC(=O)CN1CCC(CNC(=O)c2cc(C(F)(F)F)cc(C(F)(F)F)c2)CC1"
output: True

input: Decide: IC50 of "Cc1cccc(C)c1NC(=O)CC1CCN(CCNS(=O)(=O)C(C)C)CC1" strictly below 2000 nM?
output: False

input: Would you kindly verify if IC50 of "O=C(NCC1CCN(CCNS(=O)(=O)C2CC2)CC1)c1cc(F)cc(Cl)c1" is strictly less than 2000 nM?
output: True

input: Determine whether this compound shows IC50 lower than 2000 nM (ties excluded): "CC(C)(C)OC(=O)NCCN1CCC(CNC(=O)c2cc(F)cc(F)c2)CC1"
output: False
